Molecular target: T1, FZD9 CRD (Homo sapiens, UniProt O00144)
T1 construct: G35-A161; GPI anchor signal (C); expressed in transfected cells; host or cells: CHO cells, lentiviral pLenti-puro
T1 sequence (O00144 35-161): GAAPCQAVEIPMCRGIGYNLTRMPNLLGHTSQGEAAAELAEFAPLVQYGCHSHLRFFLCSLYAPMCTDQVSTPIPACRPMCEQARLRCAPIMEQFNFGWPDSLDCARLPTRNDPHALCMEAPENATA
Experiment: Immunofluorescence of anti-FZD5 Fab binding to CHO cells overexpressing Frizzled CRD
Parameters: key: −: no binding; +: very weak binder; ++: weak binder; +++: good binder; ++++: very good binder
endpoint name: Immunofluorescence binding, Frizzled CRD overexpressed on CHO cells: FZD9

Fab-2930: anti-FZD5 Fab with antibody variable region Fv-2930; CDR SEQ ID NOs: 35, 36, 69, 107, 145, 153 (antibody, V domains shown) VH: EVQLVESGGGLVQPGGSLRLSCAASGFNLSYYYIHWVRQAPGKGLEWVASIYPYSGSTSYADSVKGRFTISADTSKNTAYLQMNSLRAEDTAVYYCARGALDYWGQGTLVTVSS VL: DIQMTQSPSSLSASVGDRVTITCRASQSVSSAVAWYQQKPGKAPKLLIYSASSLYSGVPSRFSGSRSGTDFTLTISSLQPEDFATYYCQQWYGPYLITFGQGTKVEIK; −
